# assay explanation: Antiradiation evaluation test was carried out in mice and lethal dose for antiradiation effect at 800 rads was evaluated by the x-ray.
# Type: ADME, organism-based
# condition label: mouse, in vivo
measure: LD50 (mg/kg)

# compound structure, assay value
rows = [
    ("CCN(CC)C(=S)SC/C(=N\\c1ccccc1)Nc1ccc(OC)cc1", 780),
    ("CCN(CC)C(=S)SC/C(=N\\c1ccc(C)cc1)Nc1ccc(OC)cc1", 970),
    ("CCOc1ccc(N/C(CSC(=S)N(CC)CC)=N/c2ccc(C)cc2)cc1", 850),
    ("CCOc1ccc(N/C(CSC(=S)N(CC)CC)=N/c2ccc(OC)cc2)cc1", 1270),
    ("CCN(CC)C(=S)SC/C(=N\\c1ccc(OC)cc1)Nc1ccc(OC)cc1", 1370),
]
